GI50 reference
Test system: A549
Assay: NCI tumour cell line growth inhibition, 48 h
Activity calls are given as the source filed them. Rule as the data show it: active = GI50 up to about 1.1 µM and inactive = higher.
measure: GI50

compound	observed
COc1ccccc1NC(=O)C1=C(C)NC(C)=C(C(=O)Nc2ccccc2OC)C1/C=C/c1ccccc1	80.9 µM (inactive)
O=[N+]([O-])c1ccc2[nH]c(=S)[nH]c(=S)c2c1	> 100 µM (inactive)
CCCC(=O)N(C(=O)CCC)C1=C(Cl)C(=O)c2ccccc2C1=O	6.73 µM (inactive)
O=C(O)C(=Cc1ccc(-c2ccccc2)cc1)C(=O)O	18 µM (inactive)
O=C(CC(=O)Nc1ccccc1)NNC(Sc1ccccc1)c1cc(/N=N/c2ccc(Br)cc2)ccc1O (stereo not given)	3.85 µM (inactive)
C=C(C)[C@H]1CC[C@@]23O[C@@H]2[C@@H](C[C@@]2(C)CC(=O)[C@H](CC(=O)C1)O2)OC(=O)[C@@]12CC[C@H](C(=C)C)CC(=O)C[C@H]4O[C@](C)(CC4=O)C[C@@H](OC3=O)[C@@H]1O2	> 100 µM (inactive)
CC(C)CC(N)C(=O)OCN1C(=O)C2C3C=CC(C2C1=O)C1C2C(=O)N(COC(=O)C(N)CC(C)C)C(=O)C2C31 (stereo not given)	> 100 µM (inactive)
Nc1ccc2c(c1)N(C(=O)CCCC(=O)N1CC(CCl)c3ccc(N)cc31)CC2CCl (stereo not given)	0.472 µM (active)
O=c1c2ccccc2nc2[nH][nH]c(=S)n12	> 100 µM (inactive)
COC(=O)C1C(O)CCC2CN3CCc4c([nH]c5cccc(OC)c45)C3CC21 (stereo not given)	> 100 µM (inactive)
FC(F)(F)c1cccnc1Sc1nc2ccccc2s1	> 100 µM (inactive)
O=C(CC(=O)N1N=C(n2ccc3ccccc32)CC1c1ccccc1)Nc1ccc(Cl)cc1 (stereo not given)	> 100 µM (inactive)
N#CC1=CNc2sccc2S1(=O)=O	> 100 µM (inactive)
CSc1ccc(C(=O)C(=O)c2ccc(SC)s2)s1	> 10 µM (inactive)
COC1OC(Cn2cc([N+](=O)[O-])nc2C)C(O)C(O)C1O (stereo not given)	> 100 µM (inactive)
CCN(CC)CCNc1ccc2nc(C)n3c4ccc(OC)cc4c(=O)c1c23	0.668 µM (active)
O=c1oc2ccc([N+](=O)[O-])cc2c(Nc2ccc3c(c2)Sc2ccccc2O3)c1[N+](=O)[O-]	24.9 µM (inactive)
COC(=O)/C(=N\N)C(C(=O)C(=O)Nc1cccc([N+](=O)[O-])c1)c1nc2ccc(C(=O)c3ccccc3)cc2nc1O (stereo not given)	61.4 µM (inactive)
O=C(CCCN1CC=C(n2c(=O)[nH]c3ccccc32)CC1)c1cccs1	> 100 µM (inactive)
CSc1ccc(/C=C2/C[N+](C)(C)C/C(=C/c3ccc(SC)cc3)C2=O)cc1	21.9 µM (inactive)

---

System: IGROV-1
Assay: NCI tumour cell line growth inhibition, 48 h
The source made the active and inactive calls. No stated cut-off is given here; in the data, active = GI50 up to about 1.1 µM and inactive = higher.
GI50 overview
measure: GI50

> print(dat)
                                    molecule   target             observed
 1      COC(=O)c1cccc(OC)c1C#Cc1c(OC)cccc1OC  IGROV-1  > 100 µM (inactive)
 2  O/N=C1/Nc2ccccc2C(=S)N2CSCC12 (stereo not given)  IGROV-1  > 100 µM (inactive)
 3               O=C1CCCC2=C(N1)C(=O)C=CC2=O  IGROV-1     43 µM (inactive)
 4             O=C1C2=Cc3ccccc3CCN2c2ccccc21  IGROV-1   30.2 µM (inactive)
 5         COc1ccc(CCc2cc(OC)c(O)c(OC)c2)cc1  IGROV-1  > 100 µM (inactive)
 6  COC(=O)/C=C/[C@H]1[C@H](C)N1S(=O)(=O)c1ccc(C)cc1 (stereo not given in full)  IGROV-1  > 100 µM (inactive)
 7  CC1=C(C(=O)OCCc2ccc([N+](=O)[O-])cc2)C(c2ccccc2[N+](=O)[O-])C(C(=O)OC(C)C)=C(C)N1 (stereo not given)  IGROV-1   7.05 µM (inactive)
 8  OC1(c2ccccc2)OC(C#Cc2ccccc2)(c2ccccc2)c2ccccc21 (stereo not given)  IGROV-1     11 µM (inactive)
 9     CCOC(=O)/C=C/C(Br)=C(Br)/C=C/C(=O)OCC  IGROV-1   14.2 µM (inactive)
10          CSc1ccc(C(=O)C(=O)c2ccc(SC)s2)s1  IGROV-1   > 10 µM (inactive)
11  CCOC(=O)c1ccc(/N=C2\S/C(=C\C(=S)Nc3ccccc3)N(c3ccccc3)\C2=N/c2ccc(C(=O)OCC)cc2)cc1  IGROV-1  > 100 µM (inactive)
12  COc1ccccc1NC(=O)C1=C(C)NC(C)=C(C(=O)Nc2ccccc2OC)C1/C=C/c1ccccc1  IGROV-1  > 100 µM (inactive)
13  Cc1ccccc1Nc1nc2ccccc2nc1NS(=O)(=O)c1ccccc1  IGROV-1  > 100 µM (inactive)
14  Cc1nc(=O)n2c(C)n[nH]c2c1C(=O)Nc1cc(Cl)cc(Cl)c1  IGROV-1   24.5 µM (inactive)
15  N#Cc1c(-c2ccccc2)c(C#N)c(=O)n(NS(=O)(=O)c2ccccc2)c1O  IGROV-1  > 100 µM (inactive)

Reference for the values: ChEMBL document CHEMBL1201862
